- PROCEDURE TEXT: Cytotoxicity assay on murine macrophages (resazurin, 48 h)
- Assay type: cell-based
- EXPERIMENTAL CONTEXT: mouse; J774 cell line, 48 h; pure flavonoids
Catalogue of compounds with associated CC50 at 48 h
PARAMETER: CC50 at 48 h (µM)

COMPOUND: COc1cc(O)cc(O)c1C(=O)/C=C/c1ccccc1 [Compound 8, 2′,4′-dihydroxy-6′-methoxychalchone]
PARAMETER: CC50 at 48 h
VAL: 37.8
--
COMPOUND: COc1cc(O)c2c(c1)O[C@H](c1ccc(O)cc1)CC2=O [Compound 23, sakuranetin]
PARAMETER: CC50 at 48 h
VAL: 184

----------
- PROCEDURE TEXT: Cytotoxicity assay on murine macrophages (resazurin, 48 h)
- Assay type: cell-based
- EXPERIMENTAL CONTEXT: mouse, J774 macrophage cell line; J774 cell line, 48 h; extract, fractions and sub-fractions

MOLECULE: Cc1ncc([N+](=O)[O-])n1CCO [Metronidazole, reference compound]
CC50 at 48 h, mg/L: 233

----------
- PROCEDURE TEXT: Cytotoxicity assay on murine macrophages (resazurin, 48 h)
- Format: cell-based
- EXPERIMENTAL CONTEXT: mouse, J774 macrophage cell line; J774 cell line, 48 h; pure flavonoids
Classify: criterion met when CC50 at 48 h is strictly less than 40 µM; criterion not met when CC50 at 48 h is not.

MOLECULE: COc1cccc(/C=C/C(=O)c2c(O)cc(OC)cc2OC)c1 [Compound 9, 2′-hydroxy-3,4′,6′-trimethoxychalchone]
CATEGORY: criterion met
//
MOLECULE: COc1cc(O)cc(/C=C/C(=O)c2c(O)cc(O)cc2OC)c1 [Compound 3]
CATEGORY: criterion met
//
MOLECULE: COc1cc(O)cc(O)c1C(=O)CCc1ccccc1 [Compound 16, uvangoletin]
CATEGORY: criterion not met
//
MOLECULE: COc1cc(/C=C/C(=O)c2c(O)cc(O)cc2OC)ccc1O [Compound 14]
CATEGORY: criterion met
//
MOLECULE: Cc1ncc([N+](=O)[O-])n1CCO [Metronidazole, reference compound]
CATEGORY: criterion not met
//
MOLECULE: COc1cccc(C2CC(=O)c3c(OC)cc(OC)cc3O2)c1 (stereo not shown) [Compound 24, 5,7,3′-trimethoxyflavanone]
CATEGORY: criterion not met
//
MOLECULE: COc1cc(O)cc(/C=C/C(=O)c2c(O)cc(OC)cc2OC)c1 [Compound 4]
CATEGORY: criterion met
//
MOLECULE: COc1cc(OC)c(C(=O)/C=C/c2ccccc2)c(O)c1O [Compound 12, 2′,3′-dihydroxy-4′,6′-dimethoxychalchone]
CATEGORY: criterion met
//
MOLECULE: COc1cccc(/C=C/C(=O)c2c(OC)cc(O)c(OC)c2O)c1 [Compound 10]
CATEGORY: criterion not met
//
MOLECULE: COc1cc(O)c(OC)c(O)c1C(=O)/C=C/c1cccc(O)c1 [Compound 2]
CATEGORY: criterion not met
//
MOLECULE: COc1cccc(/C=C/C(=O)c2c(O)cc(O)cc2OC)c1 [Compound 7, 2′,4′-dihydroxy-3,6′-dimethoxychalchone]
CATEGORY: criterion met
//
MOLECULE: COc1cc(O)cc(O)c1C(=O)/C=C/c1cccc(O)c1 [Compound 1, 2′,4′,3-Trihydroxy-6′-methoxychalcone]
CATEGORY: criterion met
//
MOLECULE: COc1cc(O)cc(/C=C/C(=O)c2c(OC)cc(OC)c(O)c2O)c1 [Compound 11]
CATEGORY: criterion not met

Data provenance is paper PMC9695682.
